- Target Desc: T1, purified CD160 (SPR analyte) (UniProt O95971 25-159, limits assumed)
- T1 sequence (looked up): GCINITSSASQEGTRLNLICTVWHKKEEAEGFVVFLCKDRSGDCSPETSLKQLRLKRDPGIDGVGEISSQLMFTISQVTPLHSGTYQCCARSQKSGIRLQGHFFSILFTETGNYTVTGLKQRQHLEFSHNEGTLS
- Test Name: SPR, Biacore T200, scFv captured on CM5 chip, CD160 as analyte, single-cycle kinetics, 1:1 Langmuir fit
Examples of binders with documented kon follow.
Please respond with the number in M⁻¹ s⁻¹ and leave the unit unwritten.

INSERT INTO measurements (binder, readout_unit, numeric_readout) VALUES
  ('anti-CD160 scFv clone 16 (scFv, Rat scFv, VH-linker-VL) scFv: QVNLQESGPGLVRPSETLSLTCTVSGFSLISYGVNWFRQPPGKGLEWMGTIWNDGGTDYNSALKSRLSISRDTSKSQVFLKMNSLQTEDTAIYFCARGFEHWGQGVMVTVSSGGGGSGGGGSGGGGSDIQMTQSPASLSASLGETVSIECLTSEDISNDSAWYQQKSGKSPQLLIYAASRLQDGVPSRFSGSGSGTRYSLKISGMQPEDEADYFCQQSYKYPLTFGSGTKLEIKR', 'M⁻¹ s⁻¹', 279000);

Moving on to another binder below.
Exercise: Endpoint output: kon of anti-CD160 scFv clone 19 (scFv, Rat scFv, VH-linker-VL) scFv: EVKLVESGGGLVQPGRSLKLSCAASGFTFSNYGMAWVRQAPTKGLEWVATISNGGGNTYYRDSVKGRFTISRDNAKNTQYLQMDSLRSEDTATYYCVAHNYESTVFDYWGQGAMVTVSSGGGGSGGGGSGGGGSEIVLTQSPTPMTASPGEKVTITCRASSSVSYMHWYQQKPGASPKPWIYETSKLASGVPDRFSGSGSGTSYSLTINNMEAEDAATYYCQQWNYPSMYTFGAGTKLELKR . Value?
Solution: 157000

Origin of measurements: patent US20240158500A1
